Listed here: compounds with reported Ki for human serotonin 2C receptor (h-5-HT2C) (Homo sapiens (Human), UniProt P28335).
endpoint: Ki (nM)

[[record]]
compound = "CNCc1cc(OCc2cc(Cl)ccc2F)n(CC2CCCCO2)n1 (single isomer, unassigned; (-)) [Example 474]"
target_or_test_system = "human serotonin 2C receptor (h-5-HT2C) (Homo sapiens (Human), UniProt P28335)"
unit_spec = "nM"
readout_number = 16

[[record]]
compound = "CNCc1cc(OCc2cc(Cl)ccc2F)n(CC2CCCCO2)n1 (single isomer, unassigned; (+)) [Example 475]"
target_or_test_system = "human serotonin 2C receptor (h-5-HT2C) (Homo sapiens (Human), UniProt P28335)"
unit_spec = "nM"
readout_number = 19


----------
# target.or.test.system: human serotonin transporter (h-SERT) (Homo sapiens (Human), UniProt P31645)
# method: [3H] citalopram binding assay to evaluate human serotonin reuptake inhibitory action (h-SERT binding assay)
# test.parameters: h-SERT binding inhibition constant Ki, Test Ex. 1
Ki by entry:
endpoint: Ki (nM)

[[record]]
compound = "CNCc1cc(OCc2cc(Cl)ccc2F)n(CC2CCCCO2)n1 (single isomer, unassigned; (+)) [Example 475]"
endpoint = "Ki"
readout_number = 9.2

[[record]]
compound = "CNCc1cc(OCc2cc(Cl)ccc2F)n(CC2CCCCO2)n1 (single isomer, unassigned; (-)) [Example 474]"
endpoint = "Ki"
readout_number = 11


----------
# target.or.test.system: human serotonin 2C receptor (h-5-HT2C) (Homo sapiens (Human))
# method: 5-HT2C receptor agonistic action assay (FLIPR Calcium 4, h-5-HT2C/CHO cells; agonistic / inverse agonistic action)
# Format: cell-based
Lab note: compare 5-HT2C receptor agonistic action with -90%, writing yes if less and no if equal or more.

[[record]]
compound = "CNCc1cc(OCc2cc(Cl)ccc2F)n(CCC(C)(C)F)n1.Cl"
qualitative_label = "yes"

[[record]]
compound = "CNCc1cc(OCc2ccc(F)cc2F)n(CC2CCCC2)n1"
qualitative_label = "yes"

[[record]]
compound = "CNCc1cc(OCc2ccccc2)n(C(C)C2CCCC2)n1.Cl (stereo not shown)"
qualitative_label = "no"

[[record]]
compound = "CNCc1cc(OCc2ccc(F)cc2C)n(CC2CCCCO2)n1 (stereo not shown)"
qualitative_label = "yes"

[[record]]
compound = "CNCc1cc(OCc2cc(Cl)ccc2F)n(CC2(OC)CCCCC2)n1"
qualitative_label = "no"

[[record]]
compound = "CNCc1cc(OCc2ccccc2)n(C(CF)C2CCCCC2)n1.Cl (stereo not shown)"
qualitative_label = "no"


----------
# target.or.test.system: human serotonin 2C receptor (h-5-HT2C) (Homo sapiens (Human))
# method: 5-HT2C receptor agonistic action assay (FLIPR Calcium 4, h-5-HT2C/CHO cells; agonistic / inverse agonistic action)
# Assay type: cell-based
# test.parameters: Test Ex. 3; test material 10 μmol/L; 100% = 10 μmol/L 5-HT, −100% = 10 μmol/L SB206553; below 0% = inverse agonistic action
Returns one of Fulfilled or Not fulfilled; Fulfilled when 5-HT2C receptor agonistic action is >= -90%.

[[record]]
molecule = "CCC(CC)n1nc(CNC)cc1OCc1ccc(F)cc1Cl"
qualitative_label = "Fulfilled"

[[record]]
molecule = "CNCc1cc(OCc2cc(F)ccc2F)n(CCC(C)(C)C)n1"
qualitative_label = "Fulfilled"

[[record]]
molecule = "CNCc1cc(OCc2cc(Cl)ccc2F)n(CC(C)C)n1"
qualitative_label = "Not fulfilled"

[[record]]
molecule = "CNC(C)c1cc(OCc2cc(F)ccc2F)n(CCC2CCCC2)n1 (stereo not shown) [Example 315]"
qualitative_label = "Fulfilled"

[[record]]
molecule = "CNCc1cc(OCc2cc(Cl)ccc2F)n(CC(C)(C)C)n1"
qualitative_label = "Not fulfilled"

[[record]]
molecule = "CNC(C)c1cc(OCc2cc(F)ccc2F)n(CCC2CCCC2)n1 (single isomer, unassigned; (-)) [Example 476]"
qualitative_label = "Fulfilled"

[[record]]
molecule = "CNC(C)c1cc(OCc2cc(F)ccc2F)n(CCC2CCCC2)n1 (single isomer, unassigned; (+)) [Example 477]"
qualitative_label = "Not fulfilled"


----------
Below, each entry is listed with its recorded 5-HT2C receptor agonistic action.
# target.or.test.system: human serotonin 2C receptor (h-5-HT2C) (Homo sapiens (Human), UniProt P28335)
# Sequence (P28335 whole entry, looked up): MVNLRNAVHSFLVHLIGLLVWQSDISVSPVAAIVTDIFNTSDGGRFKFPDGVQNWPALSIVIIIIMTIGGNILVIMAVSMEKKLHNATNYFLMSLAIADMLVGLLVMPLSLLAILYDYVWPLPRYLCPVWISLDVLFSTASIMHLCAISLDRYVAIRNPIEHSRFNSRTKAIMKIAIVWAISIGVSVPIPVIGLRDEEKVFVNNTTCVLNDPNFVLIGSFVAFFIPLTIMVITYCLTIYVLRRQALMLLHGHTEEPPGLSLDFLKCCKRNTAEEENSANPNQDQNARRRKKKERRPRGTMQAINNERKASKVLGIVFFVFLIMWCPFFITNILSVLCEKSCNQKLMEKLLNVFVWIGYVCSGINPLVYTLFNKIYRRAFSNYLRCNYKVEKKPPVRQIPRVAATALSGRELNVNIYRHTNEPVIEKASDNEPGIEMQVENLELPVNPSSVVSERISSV
# method: 5-HT2C receptor agonistic action assay (FLIPR Calcium 4, h-5-HT2C/CHO cells; agonistic / inverse agonistic action)
# Assay type: cell-based
endpoint: 5-HT2C receptor agonistic action (%)

[[record]]
compound = "CNCc1cc(OCc2cc(Cl)ccc2F)n(CCC2(O)CCCC2)n1.Cl [Example 435]"
unit_spec = "%"
readout_number = "−125"

[[record]]
compound = "CCNCc1cc(OCc2cc(F)ccc2F)n(CC2CCCCC2)n1 [Example 344]"
unit_spec = "%"
readout_number = "−82"

[[record]]
compound = "CNCc1cc(OCc2cc(Cl)ccc2F)n(CC2CCCCO2)n1 (single isomer, unassigned; (+)) [Example 475]"
unit_spec = "%"
readout_number = "−95"

[[record]]
compound = "CNCc1cc(OCc2cccc(OC)c2)n(CC2CCCCC2)n1 [Compound 42]"
unit_spec = "%"
readout_number = "−106"

[[record]]
compound = "CNCc1cc(OCc2cccc(Cl)c2)n(CC2CCc3ccccc3O2)n1.Cl (centres unmarked) [Example 341]"
unit_spec = "%"
readout_number = "−71"

[[record]]
compound = "CNCc1cc(OCc2cc(F)ccc2F)n(CCC(C)(C)F)n1.Cl [Example 481]"
unit_spec = "%"
readout_number = "−109"

[[record]]
compound = "CNCc1cc(OCc2cc(F)c(F)cc2F)n(CCC2CC2)n1 [Example 426]"
unit_spec = "%"
readout_number = "−99"

[[record]]
compound = "CNCc1cc(OCc2cc(Cl)ccc2F)n(CC2CCCCO2)n1 (single isomer, unassigned; (-)) [Example 474]"
unit_spec = "%"
readout_number = "−111"

[[record]]
compound = "CNCc1cc(SCc2ccccc2)n(Cc2ccccc2)n1.Cl [Example 355]"
unit_spec = "%"
readout_number = "−72"

[[record]]
compound = "CNCc1cc(OCc2ccccc2F)n(Cc2ccc(F)cc2)n1 [Example 218]"
unit_spec = "%"
readout_number = "−111"

[[record]]
compound = "CNCc1cc(OCc2ccccc2)n(C(CO)C2CCCCC2)n1.Cl (centres unmarked) [Example 328]"
unit_spec = "%"
readout_number = "−116"

[[record]]
compound = "CNCc1cc(OCc2cc(Cl)ccc2F)n(CCC(C)OC)n1 (centres unmarked) [Compound 405]"
unit_spec = "%"
readout_number = "−90"

[[record]]
compound = "CNCc1cc(OC(F)(F)c2ccccc2)n(CC2CCCCC2)n1.Cl [Example 349]"
unit_spec = "%"
readout_number = "−82"

[[record]]
compound = "Cl.NCc1cc(OCc2cc(F)ccc2F)n(CC2CCCC2)n1 [Example 347]"
unit_spec = "%"
readout_number = "−114"


----------
# target.or.test.system: human serotonin 2C receptor (h-5-HT2C) (Homo sapiens (Human), UniProt P28335)
# method: 5-HT2C receptor agonistic action assay (FLIPR Calcium 4, h-5-HT2C/CHO cells; agonistic / inverse agonistic action)
# Type: cell-based
endpoint: 5-HT2C receptor agonistic action (%)

[[record]]
molecule = "CNCc1cc(OCc2ccccc2)n(CCCc2ccccc2)n1 [Example 3]"
readout_number = "−91"

[[record]]
molecule = "CNCc1cc(OCc2ccccc2)n(CC2CCCCC2)n1 [Example 5]"
readout_number = "−91"

[[record]]
molecule = "CNCc1cc(OC(C)c2cccc(Cl)c2)n(CC2CCCCC2)n1.Cl (stereo not shown) [Example 350]"
readout_number = "−92"

[[record]]
molecule = "CNCc1cc(OCc2cc(Cl)ccc2F)n(CCC(C)(C)OC)n1 [Example 275]"
readout_number = "−88"

